Tested on: A. niger MMX 0624 ATCC 16888
testName: MIC/MEC assay (CLSI microdilution)
Assay type: cell-based
statedConditions: RPMI plus 0.002% Tween-80; 48 hr
Method: Aureobasidin and test compounds (i.e., AbA derivatives of the present invention) were received from Kalexsyn, Inc. (Kalamazoo, Mich.) as powder and were stored at 4° C. until the day of assay. […] amphotericin was obtained from Sigma Aldrich and stored under like conditions. […] Ethanol (95%) was used as a solvent and diluent for all AbA compounds. Amphotericin B was tested from 0.06-64 μg/mL. […]
Numbered stars: 1 amine (or outer) side, 2 acyl side, 3 side chain; on linkers, the order of the positions; unused ones are H or OH. Square brackets hold non-standard residues; d marks the D form. Peptide text beside a SMILES is read from it. X13 = CN([C@@H](Cc1cccc(-c2ccc(N3CCN(C(=O)OC(C)(C)C)CC3)nc2)c1)C(=O)[*:2])[*:1]; X1 = CC(C)N1CCN(c2ccc(-c3cccc(C[C@@H](C(=O)[*:2])N(C)[*:1])c3)cc2)CC1; X19 = CN([C@@H](Cc1cccc(-c2ccc(OCc3ccccc3)cc2)c1)C(=O)[*:2])[*:1]; X2 = CN1CCN(c2ccc(-c3cccc(C[C@@H](C(=O)[*:2])N(C)[*:1])c3)cc2)CC1; X28 = CN([C@@H](Cc1cccc(-c2ccc(C(F)(F)F)cc2)c1)C(=O)[*:2])[*:1]; X34 = CC[C@@H](C)[C@@H](O[*:1])C(=O)[*:2]; Hmp(2R,3S) = CC[C@H](C)[C@@H](O)C(=O)O; NMeVal(β-OH) = CN[C@H](C(=O)O)C(C)(C)O; NMeF = CN[C@@H](Cc1ccccc1)C(=O)O; aIle = CC[C@@H](C)[C@H](N)C(=O)O; NMeV = CN[C@H](C(=O)O)C(C)C
Would you kindly list MIC for each of these compounds?

// MIC value for CC[C@H](C)[C@@H]1NC(=O)[C@@H]2CCCN2C(=O)[C@H](Cc2cccc(-c3ccc(N4CCN(C(C)C)CC4)cc3)c2)N(C)C(=O)[C@H](Cc2ccccc2)NC(=O)[C@H](C(C)C)N(C)C(=O)[C@@H]([C@@H](C)CC)OC(=O)[C@H](C(C)(C)O)N(C)C(=O)[C@H](CC(C)C)NC(=O)[C@H](C(C)C)N(C)C1=O [Compound 25] (cyclo(F[X1]PI[NMeV]L[NMeVal(β-OH)][Hmp(2R,3S)][NMeV])) : 0.015 µg/mL

Entry CC[C@H](C)[C@@H]1NC(=O)[C@@H]2CCCN2C(=O)[C@H](Cc2cccc(-c3ccc(OCc4ccccc4)cc3)c2)N(C)C(=O)[C@H](Cc2ccccc2)NC(=O)[C@H](C(C)C)N(C)C(=O)[C@@H]([C@@H](C)CC)OC(=O)[C@H](C(C)(C)O)N(C)C(=O)[C@H](CC(C)C)NC(=O)[C@H](C(C)C)N(C)C1=O [Compound 13] (cyclo(F[X19]PI[NMeV]L[NMeVal(β-OH)][Hmp(2R,3S)][NMeV])) ; MIC = 8 µg/mL

Kindly note the recorded MIC for CC[C@H](C)[C@@H]1NC(=O)[C@@H]2CCCN2C(=O)[C@H](Cc2cccc(-c3ccc(N4CCN(C)CC4)cc3)c2)N(C)C(=O)[C@H](Cc2ccccc2)NC(=O)[C@H](C(C)C)N(C)C(=O)[C@@H]([C@@H](C)CC)OC(=O)[C@H](C(C)(C)O)N(C)C(=O)[C@H](CC(C)C)NC(=O)[C@H](C(C)C)N(C)C1=O [Compound 19] (cyclo(F[X2]PI[NMeV]L[NMeVal(β-OH)][Hmp(2R,3S)][NMeV])) , which is 0.015 µg/mL

// MIC value for CC[C@H](C)[C@@H]1NC(=O)[C@@H]2CCCN2C(=O)[C@H](Cc2cccc(-c3ccc(C(F)(F)F)cc3)c2)N(C)C(=O)[C@H](Cc2ccccc2)NC(=O)[C@H](C(C)C)N(C)C(=O)[C@@H]([C@@H](C)CC)OC(=O)[C@H](C(C)(C)O)N(C)C(=O)[C@H](CC(C)C)NC(=O)[C@H](C(C)C)N(C)C1=O [Compound 3] (cyclo(F[X28]PI[NMeV]L[NMeVal(β-OH)][Hmp(2R,3S)][NMeV])) : 1/1 μg/mL

Memo: CC[C@H](C)[C@@H]1NC(=O)[C@@H]2CCCN2C(=O)[C@H](Cc2cccc(-c3ccc(N4CCN(C(=O)OC(C)(C)C)CC4)nc3)c2)N(C)C(=O)[C@H](Cc2ccccc2)NC(=O)[C@H](C(C)C)N(C)C(=O)[C@@H]([C@@H](C)CC)OC(=O)[C@H](C(C)(C)O)N(C)C(=O)[C@H](CC(C)C)NC(=O)[C@H](C(C)C)N(C)C1=O [Compound 26] (cyclo(F[X13]PI[NMeV]L[NMeVal(β-OH)][Hmp(2R,3S)][NMeV])) , reported MIC: 2/2 μg/mL

Per the record, CC[C@@H](C)[C@@H]1NC(=O)[C@@H]2CCCN2C(=O)[C@H](Cc2ccccc2)N(C)C(=O)[C@H](Cc2ccccc2)NC(=O)[C@H](C(C)C)N(C)C(=O)[C@@H]([C@H](C)CC)OC(=O)[C@H](C(C)(C)O)N(C)C(=O)[C@H](CC(C)C)NC(=O)[C@H](C(C)C)N(C)C1=O [Aureobasidin A, reference compound] (cyclo(F[NMeF]P[aIle][NMeV]L[NMeVal(β-OH)][X34][NMeV])) has MIC of >64/>64 μg/mL
